# experimental-target: human MT2 receptor (Homo sapiens, UniProt P49286)
# Construct: melatonin MT1 and MT2 receptors cDNA were individually subcloned into pcDNA3 and introduced into NIH-3T3 cells using Lipofectamine; expressed in transfected cells
# procedure-summary: Melatonin receptor binding assay (MT2), 2-[125I]-iodomelatonin
# assay-setup: membrane homogenates of NIH-3T3 cells expressing MT2; 2-[125I]-iodomelatonin 0.2 nM; 37° C., 1 hour; read-out: MT2 IC50
pIC50: −log10 of the molar value.
quantity: pIC50

Example entries begin here.
{"compound": "COc1ccc2c(c1)CCN(C(C)=O)C2CC(c1ccccc1)c1ccccc1 (centres unmarked)", "experimental-target": "human MT2 receptor (Homo sapiens, UniProt P49286)", "reading": "6.00 to 7.00"}
{"compound": "COCC(=O)N1CCc2ccc(OC)cc2C1CCc1ccc(F)cc1 (centres unmarked)", "experimental-target": "human MT2 receptor (Homo sapiens, UniProt P49286)", "reading": "> 7.00"}
{"compound": "COc1ccc2c(c1)C(CCc1ccc(F)cc1)N(C(=O)C=Cc1ccccc1)CC2 (centres unmarked)", "experimental-target": "human MT2 receptor (Homo sapiens, UniProt P49286)", "reading": "6.00 to 7.00"}

Entry CCC(=O)N1CCc2ccc(OC)cc2C1CCc1ccc(F)cc1 (centres unmarked) — recorded pIC50 = > 7.00

Lab note: COc1cc2c(cc1OC)C(CC(c1ccccc1)c1ccccc1)N(C(=O)c1ccccc1)CC2 (centres unmarked) gave pIC50 of 6.00 to 7.00

###

Here the recorded IC50 is given for each entry.
# experimental-target: human MT2 receptor (Homo sapiens)
# Construct: melatonin MT1 and MT2 receptors cDNA were individually subcloned into pcDNA3 and introduced into NIH-3T3 cells using Lipofectamine; expressed in transfected cells
# procedure-summary: Melatonin receptor binding assay (MT2), 2-[125I]-iodomelatonin
# assay-setup: membrane homogenates of NIH-3T3 cells expressing MT2; 2-[125I]-iodomelatonin 0.2 nM; 37° C., 1 hour; read-out: MT2 IC50

Guide cases for IC50, answers given:
{"compound": "COc1cc2c(cc1OC)C(CCc1ccccc1)N(C(=O)c1ccc([N+](=O)[O-])cc1)CC2 (centres unmarked)", "reading": "100 to 1000 nM"}
{"compound": "COc1ccc2c(c1)C(CC(c1ccccc1)c1ccccc1)N(C(=O)CC(C)(C)C)CC2 (centres unmarked)", "reading": "100 to 1000 nM"}
{"compound": "COc1cc2c(cc1OC)C(CCc1ccccc1)N(C(=O)C1CCCCC1)CC2 (centres unmarked)", "reading": "100 to 1000 nM"}
{"compound": "COc1cc2c(cc1OC)C(CCc1ccccc1)N(C(=O)c1cccc(C)c1)CC2 (centres unmarked)", "reading": "100 to 1000 nM"}
{"compound": "COc1cc2c(cc1OC)C(CC(c1ccccc1)c1ccccc1)N(C(=O)c1ccccc1OC)CC2 (centres unmarked)", "reading": "100 to 1000 nM"}

Item COc1cc2c(cc1Br)CCN(C(=O)C1CCCCC1)C2CC(c1ccccc1)c1ccccc1 (centres unmarked) ; assay system human MT2 receptor (Homo sapiens); IC50 reported as 100 to 1000 nM

Observed IC50, human MT2 receptor (Homo sapiens), COc1ccc2c(c1)C(CCc1ccc(F)cc1)N(C(=O)COC(C)=O)CC2 (centres unmarked) : 100 to 1000 nM

Entry COc1ccc(C(=O)N2CCc3cc(OC)c(OC)cc3C2CCc2ccccc2)cc1 (centres unmarked) , human MT2 receptor (Homo sapiens) data, IC50 value: < 100 nM

###

# experimental-target: human MT2 receptor (Homo sapiens)
# Construct: melatonin MT1 and MT2 receptors cDNA were individually subcloned into pcDNA3 and introduced into NIH-3T3 cells using Lipofectamine; expressed in transfected cells
# procedure-summary: Melatonin receptor binding assay (MT2), 2-[125I]-iodomelatonin
# assay-setup: membrane homogenates of NIH-3T3 cells expressing MT2; 2-[125I]-iodomelatonin 0.2 nM; 37° C., 1 hour; read-out: MT2 IC50
pIC50: −log10 of the molar value.
quantity: pIC50

Consider the following illustrative entries.
{"molecule": "CCNC(=O)N1CCc2cc(OC)c(OC)cc2C1CCc1cccc(OC)c1 (centres unmarked) [Example 88]", "quantity": "pIC50", "reading": "> 7.00"}
{"molecule": "CCCC(=O)N1CCc2ccc(OC)cc2C1CCc1ccc(F)cc1 (centres unmarked) [Example 115]", "quantity": "pIC50", "reading": "> 7.00"}
{"molecule": "COc1ccc2c(c1)C(CC(c1ccccc1)c1ccccc1)N(C(=O)c1cccc([N+](=O)[O-])c1)CC2 (centres unmarked) [Example 80]", "quantity": "pIC50", "reading": "6.00 to 7.00"}
{"molecule": "CC(=O)N1CCc2cc3c(cc2C1CC(c1ccccc1)c1ccccc1)OCO3 (centres unmarked) [Example 91]", "quantity": "pIC50", "reading": "6.00 to 7.00"}
{"molecule": "COc1cc2c(cc1OC)C(CCc1ccccc1)N(C(=O)c1cccc([N+](=O)[O-])c1)CC2 (centres unmarked) [Example 65]", "quantity": "pIC50", "reading": "6.00 to 7.00"}

Consider now this further molecule.
Param item: CC(=O)OCC(=O)N1CCc2cc3c(cc2C1CCc1ccc(F)cc1)OCO3 (centres unmarked) [Example 104] ; param system: human MT2 receptor (Homo sapiens); output pIC50: 6.00 to 7.00

###

# experimental-target: human MT2 receptor (Homo sapiens, UniProt P49286)
# Construct: melatonin MT1 and MT2 receptors cDNA were individually subcloned into pcDNA3 and introduced into NIH-3T3 cells using Lipofectamine; expressed in transfected cells
# Sequence (P49286 1-362): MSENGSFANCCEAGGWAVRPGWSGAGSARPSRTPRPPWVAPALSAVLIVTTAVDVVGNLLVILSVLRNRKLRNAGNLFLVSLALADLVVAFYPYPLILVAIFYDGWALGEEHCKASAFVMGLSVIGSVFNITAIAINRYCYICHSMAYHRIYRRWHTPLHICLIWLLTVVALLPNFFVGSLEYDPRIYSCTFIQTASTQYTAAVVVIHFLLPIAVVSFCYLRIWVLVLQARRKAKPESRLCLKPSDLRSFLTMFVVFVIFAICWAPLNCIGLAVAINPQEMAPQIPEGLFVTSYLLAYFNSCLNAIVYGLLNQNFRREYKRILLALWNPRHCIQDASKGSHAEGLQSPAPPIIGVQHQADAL
# procedure-summary: Melatonin receptor binding assay (MT2), 2-[125I]-iodomelatonin
# assay-setup: membrane homogenates of NIH-3T3 cells expressing MT2; 2-[125I]-iodomelatonin 0.2 nM; 37° C., 1 hour; read-out: MT2 IC50
pIC50: −log10 of the molar value.
quantity: pIC50

Example compounds with recorded pIC50:
{"compound": "COc1cc2c(cc1OC)C(CCc1ccccc1)N(C(=O)COc1ccccc1)CC2 (centres unmarked)", "experimental-target": "human MT2 receptor (Homo sapiens, UniProt P49286)", "pIC50": "6.00 to 7.00"}
{"compound": "CCC(=O)N1CCc2cc3c(cc2C1CCc1ccc(Cl)cc1)OCO3 (centres unmarked)", "experimental-target": "human MT2 receptor (Homo sapiens, UniProt P49286)", "pIC50": "> 7.00"}
{"compound": "COc1cc2c(cc1OC)C(CC(c1ccccc1)c1ccccc1)N(C(=O)C1CC1)CC2 (centres unmarked)", "experimental-target": "human MT2 receptor (Homo sapiens, UniProt P49286)", "pIC50": "> 7.00"}

Record COc1ccc2c(c1)C(CC(c1ccccc1)c1ccccc1)N(C(C)=O)CC2 (centres unmarked) [Example 20] . Reported pIC50: > 7.00

So for CC(=O)N1CCc2cc3c(cc2C1CCc1ccc(F)cc1)OCO3 (centres unmarked) , the logged pIC50 turned out to be 6.00 to 7.00

Measured pIC50, COc1cc2c(cc1OC)C(CCc1ccccc1)N(C(=O)c1ccc(C(F)(F)F)cc1)CC2 (centres unmarked) : 6.00 to 7.00

###

Here the recorded pIC50 is given for each entry.
# experimental-target: human MT2 receptor (Homo sapiens)
# Construct: melatonin MT1 and MT2 receptors cDNA were individually subcloned into pcDNA3 and introduced into NIH-3T3 cells using Lipofectamine; expressed in transfected cells
# procedure-summary: Melatonin receptor binding assay (MT2), 2-[125I]-iodomelatonin
# assay-setup: membrane homogenates of NIH-3T3 cells expressing MT2; 2-[125I]-iodomelatonin 0.2 nM; 37° C., 1 hour; read-out: MT2 IC50
pIC50: −log10 of the molar value.

{"molecule": "CCC(=O)N1CCc2cc(OC)c(OC)cc2C1CCc1cccc(OC)c1 (centres unmarked) [Example 87]", "experimental-target": "human MT2 receptor (Homo sapiens)", "pIC50": "> 7.00"}
{"molecule": "COc1ccc2c(c1)C(CCc1ccc(F)cc1)N(C(=O)CC(C)(C)C)CC2 (centres unmarked) [Example 121]", "experimental-target": "human MT2 receptor (Homo sapiens)", "pIC50": "6.00 to 7.00"}
{"molecule": "COc1cc2c(cc1OC)C(CC(c1ccccc1)c1ccccc1)N(C(=O)c1cccs1)CC2 (centres unmarked) [Example 13]", "experimental-target": "human MT2 receptor (Homo sapiens)", "pIC50": "6.00 to 7.00"}

Form field pIC50 for item COc1ccc2c(c1)C(CCc1ccc(F)cc1)N(C(=O)c1ccno1)CC2 (centres unmarked) [Example 117] on human MT2 receptor (Homo sapiens): > 7.00

For O=C(C1CC1)N1CCc2cc3c(cc2C1CCc1ccc(Cl)cc1)OCO3 (centres unmarked) [Example 139] on human MT2 receptor (Homo sapiens), measured pIC50 was > 7.00
